- experimental_target: recombinant human Flag-tagged PARP7 (amino acids 456-657) (Homo sapiens, UniProt Q7Z3E1)
- Construct: recombinant human Flag-tagged PARP7 (amino acids 456-657)
- Sequence (Q7Z3E1 456-657): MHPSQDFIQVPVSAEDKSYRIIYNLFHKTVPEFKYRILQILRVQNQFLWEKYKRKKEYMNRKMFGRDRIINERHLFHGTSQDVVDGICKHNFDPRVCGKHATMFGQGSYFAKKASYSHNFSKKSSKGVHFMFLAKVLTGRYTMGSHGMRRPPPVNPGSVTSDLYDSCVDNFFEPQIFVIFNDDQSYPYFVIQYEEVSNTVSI
- assay_overview: PARP7 biochemical DELFIA assay (auto-MARylation)
- condition_description: DELFIA readout, IC50 class
metric_name: IC50

CC(COCCC(=O)N1CCN(c2noc(C(F)(F)F)n2)CC1)n1nc(C(F)(F)F)c2c(=O)[nH]ncc21 (stereo not shown) [Compound 345] | 100 to 1000 nM

Provide reported IC50 for each item, in the same order as listed.
1. CC(COCCC(=O)N1CCN(c2ncc(C#N)cn2)CC1)n1nc(C(F)(F)F)c2c(=O)[nH]ncc21 (single isomer, unassigned) [Compound 322]
2. O=C(CCOCCc1c(F)ccc2c(=O)[nH]ncc12)N1CCN(c2ncc(C(F)(F)F)cn2)CC1 [Compound 229]
3. CC(COCCC(=O)N1CCN(c2ncc(Cl)cn2)CC1)n1cc(C(F)F)c2c(=O)[nH]ncc21 (stereo not shown) [Compound 450]

Outgoing:
1: ≤ 100 nM; 2: ≤ 100 nM; 3: ≤ 100 nM

For every record below, what is its IC50?
1. O=C(Cn1nc(C(F)(F)F)c2c(=O)[nH]ncc21)N1CCC(C(=O)N2CCN(c3ncc(C(F)(F)F)cn3)CC2)C1 (stereo not shown) [Compound 442]
2. O=C(CCOCCc1cccc2c(=O)[nH]ncc12)N1CCN(c2nc3cc(Cl)ccc3o2)CC1 [Compound 172]
3. CC(COCCC(=O)N1CCN(c2ncc(Cl)cn2)CC1)n1nc(C(F)(F)F)c2c(=O)[nH]ncc21 (stereo not shown) [Compound 186]
4. CC1CN(c2ncc(C(F)(F)F)cn2)CCN1C(=O)CCOCCn1cc(C(F)(F)F)c2c(=O)[nH]ncc21 (single isomer, unassigned) [Compound 371]
5. CC(COCCC(=O)N1CCN(c2ncc(C#N)cn2)CC1)n1cc(C(F)F)c2c(=O)[nH]ncc21 (single isomer, unassigned) [Compound 439]
6. N#Cc1cn(CCOCCC(=O)N2CCN(c3ncc(C(F)(F)F)cn3)CC2)c2cn[nH]c(=O)c12 [Compound 340]

Outgoing:
1000 to 10000 nM
≤ 100 nM
≤ 100 nM
≤ 100 nM
≤ 100 nM
≤ 100 nM

For each of the molecules below, note its IC50.
1. O=C1NCCc2c(Cc3cccc(C(=O)N4CCN(C(=O)C5CC5)CC4)c3)cccc21 [Compound 21]
2. O=C1NCCCc2c(CCOCCC(=O)N3CCN(c4ncc(C(F)(F)F)cn4)CC3)cccc21 [Compound 145]
3. O=C(CCOCCn1nc(C2CC2)c2c(=O)[nH]ncc21)N1CCN(c2ncc(C(F)(F)F)cn2)CC1 [Compound 333]
4. O=C(NCCCOc1cccc2c(=O)[nH]ncc12)N1CCN(c2ncc(C(F)(F)F)cn2)CC1 [Compound 36]

Outgoing:
1000 to 10000 nM
1000 to 10000 nM
≤ 100 nM
1000 to 10000 nM

* * *

Please provide measured IC50 for the entries that follow.
- experimental_target: recombinant human Flag-tagged PARP7 (amino acids 456-657) (Homo sapiens)
- Construct: recombinant human Flag-tagged PARP7 (amino acids 456-657)
- assay_overview: PARP7 biochemical DELFIA assay (auto-MARylation)
- condition_description: DELFIA readout, IC50 class

Consider the reported IC50 for these compounds:
CC1CN(c2ncc(C(F)(F)F)cn2)CCN1C(=O)CCOCCn1nc(C(F)(F)F)c2c(=O)[nH]ncc21 (centres unmarked) [Compound 160] | ≤ 0.1 µM
N#Cc1ccc(N2CCN(C(=O)c3cccc(Cc4cccc5c4CCCNC5=O)c3)CC2)nc1 | 0.1 to 1 µM
N#Cc1cnc(N2CCN(C(=O)CCOCCc3cccc4c(=O)[nH]ncc34)CC2)nc1 | ≤ 0.1 µM
CC(COCCC(=O)N1CCN(c2nnc(C(F)(F)F)o2)CC1)n1nc(C(F)(F)F)c2c(=O)[nH]ncc21 (single isomer, unassigned) [Compound 472] | ≤ 0.1 µM
O=C(CCOCCN1C(=O)CCc2c1cn[nH]c2=O)N1CCN(c2nc3ccccc3o2)CC1 | ≤ 0.1 µM
CC1CN(C(=O)CCOCCN2C(=O)CCc3c2cn[nH]c3=O)CCN1c1ncc(C(F)(F)F)cn1 (centres unmarked) [Compound 308] | ≤ 0.1 µM
CC1CN(C(=O)CCOCCc2cccc3c(=O)[nH]ncc23)CCN1c1ncc(C(F)(F)F)cn1 (centres unmarked) [Compound 90] | ≤ 0.1 µM
O=C(CCOCCc1cccc2c(=O)[nH]ncc12)N1CCN(c2ccc(Cl)cn2)CC1 | ≤ 0.1 µM
CC(COCCC(=O)N1CCN(c2ncc(C(C)(F)F)cn2)CC1)n1nc(C(F)(F)F)c2c(=O)[nH]ncc21 (single isomer, unassigned) [Compound 486] | ≤ 0.1 µM
CN(CCCC(=O)N1CCN(c2ncc(C(F)(F)F)cn2)CC1)Cc1cccc2c(=O)[nH]ncc12 | 0.1 to 1 µM

For every item in the list below, what is its measured IC50?
1. N#Cc1ccc(N2CCN(C(=O)c3cccc(Cc4cccc5c(=O)[nH]ncc45)c3)CC2)cc1
2. O=C(CCOCCn1nc(C(F)(F)F)c2c(=O)[nH]c(=O)[nH]c21)N1CCN(c2ncc(C(F)(F)F)cn2)CC1
3. O=C(CCOCCn1nc(C(F)(F)F)c2c(=O)[nH]ncc21)N1CCN(c2noc(C(F)(F)F)n2)CC1
4. O=C(CCCOC(c1cccc2c(=O)[nH]ncc12)C(F)(F)F)N1CCN(c2ncc(C(F)(F)F)cn2)CC1 (single isomer, unassigned) [Compound 221]

Outgoing:
1. 1 to 10 µM
2. ≤ 0.1 µM
3. ≤ 0.1 µM
4. 0.1 to 1 µM
